# System: NCI-H460 lung
# EXPERIMENT_SUMMARY: NCI tumour cell line growth inhibition, 48 h
# TGI annotations
EXPERIMENTAL_READOUT: TGI

>>> endpoint_result("COc1cccc2cc(C(N)=O)c(=N)oc12")
"> 100 µM"
>>> endpoint_result("CN(C)CCn1c2ccccc2c2nc3cc4ccccc4cc3nc21")
"2.48 µM"
>>> endpoint_result("CCCCCCCCCCCCCCCc1cc(O)ccc1N")
"> 100 µM"
>>> endpoint_result("COC(=O)c1ccccc1NC(=O)/C(=N\\NC(C)(C)C)C(C#N)c1nc(-c2ccc([N+](=O)[O-])cc2)cs1 (stereo not drawn)")
"> 100 µM"
>>> endpoint_result("C=C1CC(CCCl)(c2ccccc2)OC1=O (stereo not drawn)")
"> 100 µM"
>>> endpoint_result("CN1CCC2(CC1)C(=O)N(N1CCCCCC1)C(=O)N2c1ccccc1")
"> 100 µM"
>>> endpoint_result("O=C(CN1CCN(C(=O)OCc2ccccc2)CCN(CC(=O)N2CCCCC2)CCN(C(=O)OCc2ccccc2)CC1)N1CCCCC1")
"26.7 µM"
>>> endpoint_result("CCSC1=N/C(=C\\c2ccccc2O)C(Nc2ccc(C)cc2)=N1")
"> 100 µM"
>>> endpoint_result("Nc1cc(-c2ccccc2)ccc1O")
"> 100 µM"
>>> endpoint_result("OCCN(CCO)c1ccc2c(C(F)(F)F)cc(C(F)(F)F)nc2n1")
"> 100 µM"
>>> endpoint_result("CC1(C)N=C(N)N=C(N)N1c1ccc(F)c(C(F)(F)F)c1")
"> 100 µM"
>>> endpoint_result("C=C1c2c(cc3c(c2O)c(=O)c2ccccc2n3C)OC1(C)C")
"> 100 µM"
>>> endpoint_result("Cc1cccc(Nc2cn(COCc3ccccc3)c(=O)[nH]c2=O)c1")
"> 100 µM"
>>> endpoint_result("CC(NS(C)(=O)=O)c1ccccc1 (stereo not drawn)")
"> 100 µM"
>>> endpoint_result("COc1ccc2c(c1)c(C1(c3cn(C)c4ccc(OC)cc34)C(=O)Nc3ccc(F)cc31)cn2C")
"14.6 µM"
>>> endpoint_result("CC(=O)OC1CC2CCC1(C)C2(C)C (stereo not drawn)")
"> 100 µM"
>>> endpoint_result("CC1=CC(C)(C)N=C2SC(c3ccc(Cl)cc3)=NN12")
"> 100 µM"
>>> endpoint_result("O=C1C2C=CC1C1C(=O)OC(=O)C21 (stereo not drawn)")
"> 100 µM"

###

# TGI annotations
# System: UO-31 renal
# EXPERIMENT_SUMMARY: NCI tumour cell line growth inhibition, 48 h
EXPERIMENTAL_READOUT: TGI

>>> endpoint_result("N#Cc1c(-c2ccccc2)/c(=C\\O)c(=O)n2c1nc1ccccc12")
"> 100 µM"
>>> endpoint_result("CCC1CC2CN3CCc4c([nH]c5c(-c6c(OC)ccc7c8c([nH]c67)[C@]6(C(=O)OC)CC7CC(CC)C6N(CC8)C7)c(O)ccc45)[C@](C(=O)OC)(C2)C13 (stereo partly specified)")
"27.1 µM"
>>> endpoint_result("CCC[C@H](N[C@@H]1CCc2cc(F)cc(F)c2C1)C(=O)Nc1cn(C(C)(C)CNCC(C)(C)C)cn1")
"22.1 µM"
>>> endpoint_result("Cc1ccc(NC(=O)/C(CC(=O)c2c[n+](=O)c3ccccc3n2O)=N\\NC(=O)C[n+]2ccccc2)cc1")
"> 100 µM"
>>> endpoint_result("Cc1cccc(Nc2cn(COCc3ccccc3)c(=O)[nH]c2=O)c1")
"> 100 µM"
>>> endpoint_result("O=C1c2ccccc2-c2nc(-c3cccnc3)cc3c2c1nc1ccccc13")
"> 100 µM"
